Values compiled from ChEMBL document CHEMBL3507680.

Consider the following compounds and their measured cytotoxicity at 70.5 h readings.
assay_overview: Human HepG2 cell viability assay in 384 well format
Type: toxicity, cell-based
Parameters: dose 125 nL, time 70.5 hour; concentration not given beside the values
condition_notes: HepG2 cells, read-out: Inhibition
Use % as the unit, but write only the number.

1. O=S(=O)(Cc1ccccc1Cl)NC(CO)c1ccco1 (centres undefined) | -6.59
2. O=C(c1cccc2c1OCCO2)N1CCCC(n2cccn2)C1 (centres undefined) | -8.22
3. O=c1c(Cc2ccccc2)c(O)ccn1CCc1ccccc1 | -3.9
4. COc1ccc(CN2CCOC[C@H](OCCC(C)C)C2)cc1 | -4.37

input: Quick one: give measured cytotoxicity at 70.5 h for COCCN(Cc1nc2c(cnn2C)c(=O)[nH]1)C(C)COC (centres undefined)
output: -7.19

input: Quick one: give measured cytotoxicity at 70.5 h for COc1ccc(NC(=O)N2CCC(c3noc(C)n3)CC2)cc1C
output: 1.97

input: Quick one: give measured cytotoxicity at 70.5 h for N#Cc1ccc(C(=O)N(Cc2ccncc2)C2CC2)cc1
output: -6.43

input: Quick one: give measured cytotoxicity at 70.5 h for COc1c(CNC2CCc3ccccc32)c(C)nn1C (centres undefined)
output: -10.5

input: Quick one: give measured cytotoxicity at 70.5 h for CN(Cc1nc(-c2ccccc2)no1)Cc1cnc(N2CCOCC2)s1
output: 1.48

input: Quick one: give measured cytotoxicity at 70.5 h for COCCN1Cc2ccccc2C2(CCN(C(=O)c3ccno3)CC2)C1
output: 2.49

input: Quick one: give measured cytotoxicity at 70.5 h for CCc1ocnc1C(=O)N1CCC(n2cc(-c3ccsc3)nn2)CC1
output: -10.3

input: Quick one: give measured cytotoxicity at 70.5 h for CN1CCCc2sc(C(=O)NC3CC3)nc21
output: -1.86

input: Quick one: give measured cytotoxicity at 70.5 h for Cc1cc2c(=O)n3c(nc2s1)CCN(C(=O)c1ccn(C)n1)CC3
output: -5.05

input: Quick one: give measured cytotoxicity at 70.5 h for CC1c2ncc(COCC3CC3)n2CCN1C(=O)c1ccn(C)n1 (centres undefined)
output: -9.47

input: Quick one: give measured cytotoxicity at 70.5 h for Cc1oncc1C(=O)N1CC[C@H]2CO[C@H](CN3CCCC3)[C@H]2C1
output: -7.95

input: Quick one: give measured cytotoxicity at 70.5 h for O=S(=O)(NC[C@]12COC[C@H]1CN(c1ncc(F)cn1)C2)C1CC1
output: 19.1

----------
assay_overview: Human HepG2 cell viability assay in 384 well format
Assay type: toxicity, cell-based
Set-up: dose 125 nL, time 70.5 hour; concentration not given beside the values
condition_notes: HepG2 cells, read-out: Inhibition
Consider the following compounds and their measured cytotoxicity at 70.5 h readings.
Use % as the unit, but write only the number.

1. Cc1nnc2n1CCN(CCOc1ccccc1C#N)C2 | 11.3
2. CC(C)CN1CCCn2nc(CNC(=O)NC(C)(C)C)cc2C1 | -6.75
3. FC(F)(F)Cn1ccnc1CN1CCOC(Cn2cccn2)C1 (configuration not stated) | -2.61
4. COc1cc(CNC(C)Cn2cccn2)cc2c1OCO2 (configuration not stated) | -9.7

input: Quick one: give measured cytotoxicity at 70.5 h for O=C1CC2(CCN(Cc3cccnc3)C2)CN1c1cncnc1 (configuration not stated)
output: -2.69

input: Quick one: give measured cytotoxicity at 70.5 h for CCCN1C(=O)C2(CCCCC2)NC1c1c[nH]nc1-c1cccnc1 (configuration not stated)
output: 12.8

input: Quick one: give measured cytotoxicity at 70.5 h for O=c1[nH]nc(CNc2cncc(Br)c2)[nH]1
output: 29.9

input: Quick one: give measured cytotoxicity at 70.5 h for O=C(NCCc1ccccc1)N1C[C@H]2C[C@H](C(=O)N3CCCC3)[C@@H](C1)O2
output: 0.399

input: Quick one: give measured cytotoxicity at 70.5 h for O=C(NCc1ccccn1)NCc1ccc(Cl)s1
output: 20.5

input: Quick one: give measured cytotoxicity at 70.5 h for CC(C)n1cc(C(=O)NC2CCS(=O)(=O)C2)c2ccccc2c1=O (configuration not stated)
output: -14.3

input: Quick one: give measured cytotoxicity at 70.5 h for Cc1cccc(N2CCN(CCC(=O)NCc3cnc(C)cn3)CC2)c1
output: 23.9

input: Quick one: give measured cytotoxicity at 70.5 h for N[C@@H]1CCN(Cc2ccccc2CS(=O)(=O)c2ccccc2)C[C@H]1O
output: -8.1

----------
Consider the following molecules and their measured cytotoxicity at 70.5 h readings.
assay_overview: Human HepG2 cell viability assay in 384 well format
Format: toxicity, cell-based
Parameters: dose 125 nL, time 70.5 hour; concentration not given beside the values
condition_notes: HepG2 cells, read-out: Inhibition
Use % as the unit, but write only the number.

1. Cn1ccc2c(-c3ccc(NCCO)nn3)ccnc21 | -9.8

input: Quick one: give measured cytotoxicity at 70.5 h for O=S(=O)(NCCNc1ccc(-n2cccc2)nn1)c1cccs1
output: 3.82

input: Quick one: give measured cytotoxicity at 70.5 h for CCC(=O)N1CCCN(Cc2cc(F)cc(Br)c2)CC1
output: 16.2

input: Quick one: give measured cytotoxicity at 70.5 h for CCOC(=O)COc1nc(CC(C)C)c2c(c1C#N)CCC2
output: 1.02

input: Quick one: give measured cytotoxicity at 70.5 h for O=C(CCCOc1cccc(F)c1)N1CCCC(n2cncn2)C1 (configuration not stated)
output: 1.02

input: Quick one: give measured cytotoxicity at 70.5 h for COc1nc2c(cc1C(=O)NCCCc1csc(N)n1)CCC2
output: -6.85

----------
Consider the following compounds and their measured cytotoxicity at 70.5 h readings.
assay_overview: Human HepG2 cell viability assay in 384 well format
Assay type: toxicity, cell-based
Parameters: dose 125 nL, time 70.5 hour; concentration not given beside the values
condition_notes: HepG2 cells, read-out: Inhibition
Use % as the unit, but write only the number.

Study these solved cases before continuing.
1. Cc1ccc(C)c(OCCNC(=O)[C@@H]2CCCCN2)c1 | -5.85
2. O=S(=O)(c1ccccc1F)N1CCCC(c2nccs2)C1 (stereo not drawn) | -1.24
3. COc1cc(C)c(S(=O)(=O)CC(=O)N(C)C2CC2)cc1OC | 15.2
4. CC1(C)CN(C(=O)NCCc2ccn(-c3ccccc3)n2)CCO1 | -12.4
5. CCc1nc(C2CCCN(C(=O)c3ccc4c(c3)nnn4C)C2)no1 (stereo not drawn) | -7.83
6. COCCC(=O)N1CCC2(CCN(Cc3ccc(OC)c(F)c3)C2)C1 (stereo not drawn) | -93.9
7. Cc1ccc(-n2ccnc2)c(C(=O)NCCCN(C)C)c1 | 2
8. c1cc(CN2CCC3(CC2)COC(COCC2CC2)C3)ccn1 (stereo not drawn) | -16.7

input: Quick one: give measured cytotoxicity at 70.5 h for CCS(=O)(=O)N1CCN(CC2CC2)c2ncccc2C1
output: -2.09

input: Quick one: give measured cytotoxicity at 70.5 h for O=C1NC2(CCN(C(=O)c3ccnnc3)CC2)CC1c1ccccc1 (stereo not drawn)
output: 22.9

----------
assay_overview: Human HepG2 cell viability assay in 384 well format
Type: toxicity, cell-based
Set-up: dose 125 nL, time 70.5 hour; concentration not given beside the values
condition_notes: HepG2 cells, read-out: Inhibition
Consider the following molecules and their measured cytotoxicity at 70.5 h readings.
Use % as the unit, but write only the number.

Study these solved cases before continuing.
1) O=C(c1scc2c1OCCO2)N1CCC(Cc2cccc(CO)c2)C1 (stereo unspecified) | -3.37
2) CN(CCN1CCCCC1=O)Cc1cc2cc3c(cc2[nH]c1=O)OCO3 | -8.86
3) CC(=O)N1CCC(NC(=O)c2cc(Cl)ccc2-n2cnnn2)CC1 | -6.61
4) CNc1ncccc1CN1CCN(C)CC(C(N)=O)C1 (stereo unspecified) | 25.3
5) COc1cc(C)c(C)cc1S(=O)(=O)NCC(O)c1cccn1C (stereo unspecified) | -5.03
6) Cc1cc(CN2CCOC(CNc3cccnn3)C2)on1 (stereo unspecified) | -0.746

input: Quick one: give measured cytotoxicity at 70.5 h for Cc1oc(CN(C)C(=O)c2ccc(C(F)(F)F)cc2)cc1C(=O)O
output: -6.23

input: Quick one: give measured cytotoxicity at 70.5 h for CC(CN(C)C(=O)c1cn(C)nc1-c1ccc(F)cc1F)C(=O)O (stereo unspecified)
output: -1.61

input: Quick one: give measured cytotoxicity at 70.5 h for COc1cccc2c1OCC(C(=O)NCCc1nnc(N)s1)C2 (stereo unspecified)
output: -5.75

input: Quick one: give measured cytotoxicity at 70.5 h for Cc1csc2c(N3CCC(NCCCc4cnn(C)c4)CC3)ncnc12
output: 2.87

input: Quick one: give measured cytotoxicity at 70.5 h for CC(Cn1ccnc1)NC(=O)N1CCN(Cc2ccco2)CC1 (stereo unspecified)
output: 0.365

----------
assay_overview: Human HepG2 cell viability assay in 384 well format
Type: toxicity, cell-based
Parameters: dose 125 nL, time 70.5 hour; concentration not given beside the values
condition_notes: HepG2 cells, read-out: Inhibition
reported_property: cytotoxicity at 70.5 h
Don't forget the unit after the number, please.

Study these solved cases before continuing.
1. Cc1ccc(CC(=O)N2CCc3nnc(N(C)C)cc3C2)cn1 | -3.16%
2. CCOCc1nc2c(c(N3CC=CC3)n1)CCN(CC1CC1)CC2 | 9.81%

input: Quick one: give measured cytotoxicity at 70.5 h for C[C@@H](CO)NC(=O)c1ccc2nc(NS(C)(=O)=O)sc2c1
output: -2.43%

input: Quick one: give measured cytotoxicity at 70.5 h for CNC(=O)c1ccc(C2CN(C(=O)c3c[nH]nc3C)CCO2)nc1 (stereo unspecified)
output: -1.61%

input: Quick one: give measured cytotoxicity at 70.5 h for O=C(C1CC=CC1)N1Cc2nccn2CC(CN2CCCC2)C1 (stereo unspecified)
output: -4.01%

input: Quick one: give measured cytotoxicity at 70.5 h for CS(=O)(=O)N1C[C@@H]2CC[C@H](C1)N(C(=O)Cn1ccc3ccccc31)C2
output: -4.09%
